- experiment summary: chemical genetic growth profiling, strain panel (AID 1159580);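 further: tested at 20 µM; growth read once vehicle control cultures reached saturation at 30 °C; 1 = growth at the plate median or of vehicle wells; lower values mean less growth of the strain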
- protocol conditions: S. cerevisiae deletion strains, growth OD, locus YAL021C, strain ccr4
Hit rate of the full screen: of about 5,500 compounds, about 2,000 (36%) were called active. Not shown: some 18% with an inconclusive outcome. No stated cut-off is given here; in the data, active means normalized growth mostly below about 0.91 (no sharp cut-off); inconclusive means no clear call, values can overlap the other calls; inactive means mostly above about 0.92. Some of the results follow.
Outcome codes: label 1 for active, label 0 for inactive

| molecule | label class |
| --- | --- |
| CCCN(CCC)C(=O)C(CCC(=O)O)NC(=O)c1ccccc1 (configuration not stated) | label 0 |
| CCN(CC)CCOC(=O)C(Cc1cccc2ccccc12)CC1CCCO1 (configuration not stated) | label 0 |
| COc1ccc(/C=C/C(=O)O)cc1OC | label 0 |
| O=C(O)c1cc(O)c(O)c(O)c1 | label 0 |
| CC[C@@]1(C2O[C@@H](C3O[C@@](O)(CC)[C@H](C)C[C@@H]3C)C[C@@H]2C)CC[C@H]([C@]2(C)CCC3(C[C@H](O)[C@@H](C)[C@@H]([C@H](C)[C@@H](OC)[C@H](C)C(=O)O)O3)O2)O1 (some centres not stated) | label 0 |
| c1ccc(-c2ccc(C(c3ccccc3)n3ccnc3)cc2)cc1 (configuration not stated) | label 1 |
| COc1ccc(/C=C/c2cc(O)cc(O)c2)cc1 | label 0 |
| CC1(C)CC2C1CCC1(C)OC1CCC2(C)O (configuration not stated) | label 0 |
| OC/C=C/c1ccc(O)c(O)c1 | label 0 |
| CCOC(=O)c1ccc(N)cc1 | label 0 |
| O=C(O)c1cc(=O)c(O)c2c(O)c(O)c(O)cc2c1 | label 1 |
| CC1(C)CC2C1CCC1(C)OC2(C)CCC1O (configuration not stated) | label 0 |
| CCC(COC(=O)c1cc(OC)c(OC)c(OC)c1)(c1ccccc1)N(C)C (configuration not stated) | label 0 |
| NCCCCN=C(N)N | label 0 |
| COc1cc(/C=C/C(=O)O)cc(OC)c1OC | label 0 |
| O=C(O)CCC(=O)c1ccc(-c2ccccc2)cc1 | label 0 |
| C=CCN1CC[C@]23c4c5ccc(O)c4OC2C(=O)CC[C@@]3(O)[C@H]1C5 (some centres not stated) | label 0 |
| O=C(NC(Cc1cc(=O)[nH]c2ccccc12)C(=O)O)c1ccc(Cl)cc1 (configuration not stated) | label 0 |
| CC(=O)O[C@H]1C[C@@H](OC(C)=O)C(C)(C)C2C[C@@H](OC(C)=O)[C@]3(C)C(CC[C@@]4(C)[C@H](c5ccoc5)C(=O)[C@H]5O[C@]543)[C@]21C (some centres not stated) | label 0 |
| Oc1ccc(/C=C/c2cc(O)cc(O)c2)cc1 | label 0 |
| C[C@H](COc1ccccc1)N[C@H](C)[C@H](O)c1ccc(O)cc1 | label 0 |
| O=C(/C=C/c1ccc(O)c(O)c1)O[C@@H]1C[C@](O)(C(=O)O)C[C@@H](O)[C@H]1O | label 0 |

----------
Reported normalized growth values follow for various compounds
- experiment summary: chemical genetic growth profiling, strain panel (AID 1159580);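 further: tested at 20 µM; growth read once vehicle control cultures reached saturation at 30 °C; 1 = growth at the plate median or of vehicle wells; lower values mean less growth of the strain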
- protocol conditions: S. cerevisiae deletion strains, growth OD, locus YIL066C, strain RNR3, hits give low values
Among all 5,500 compounds or so, about 2,000 (36%) were called active. Roughly 18% stayed inconclusive and do not appear here. Some of the results follow.

| compound | normalized growth |
| --- | --- |
| C#C[C@]1(O)CCC2C3CCc4cc(O)ccc4C3CC[C@@]21C (some centres undefined) | 0.913 |
| COc1ccc(C[C@H](N)C(=O)N[C@@H]2[C@@H](CO)OC(n3cnc4c(N(C)C)ncnc43)[C@@H]2O)cc1 (some centres undefined) | 1.02 |
| Nc1nc(N)c2nc(CNc3ccc(C(=O)NC(CCC(=O)O)C(=O)O)cc3)cnc2n1 (centres undefined) | 1 |
| COS(C)(=O)=O | 1.04 |
| Nc1nc2c(c(=O)[nH]1)N(C=O)C(CNc1ccc(C(=O)N[C@@H](CCC(=O)O)C(=O)O)cc1)CN2 (some centres undefined) | 0.989 |
| Nc1nc2ncc(CNc3ccc(C(=O)N[C@@H](CCC(=O)O)C(=O)O)cc3)nc2c(=O)[nH]1 | 1 |
| CC12CCC(CC1)C(C)(C)O2 | 0.998 |
| CC(=O)Oc1cc(C)c2c(c1C(OC(C)=O)OC(C)=O)Oc1c(c(C)c(OC(C)=O)c3c1C(OC(C)=O)OC3=O)OC2=O (centres undefined) | 0.983 |
| CN(Cc1cnc2nc(N)nc(N)c2n1)c1ccc(C(=O)NC(CCC(=O)O)C(=O)O)cc1 (centres undefined) | 1 |
